The reported numbers originate from ChEMBL document CHEMBL4311960.

The following substances are shown together with reported hemolysis at 1 h, 640 ug/ml values.
- experiment-summary: Hemolytic activity in mouse Erythrocyte at 640 ug/ml incubated for 1 hr relative to control
- Type: ADME, cell-based
- measurement-conditions: mouse erythrocytes, read-out: %max
Include the unit right after the number.

// worked examples, hemolysis at 1 h, 640 ug/ml included
substance	recorded-endpoint	data-value
H-YIRKINRHFKTLKKNLKK-NH2	hemolysis at 1 h, 640 ug/ml	8.07%
H-YIRKIRRFFKKLNKNLKK-NH2	hemolysis at 1 h, 640 ug/ml	9.86%
H-WYERLINRKFKWLKGRLSKK-NH2	hemolysis at 1 h, 640 ug/ml	17.3%
H-SYEIKINRHFKTLKKNLKKK-NH2	hemolysis at 1 h, 640 ug/ml	6.78%
H-YIRKIRRFFKKRFKFRKK-NH2	hemolysis at 1 h, 640 ug/ml	8.21%
H-VWKRWVVRKWKWVKKKVKKK-NH2	hemolysis at 1 h, 640 ug/ml	31%
H-YIRKIRRFFKTLNKNLKK-NH2	hemolysis at 1 h, 640 ug/ml	7.17%
H-LYKRYILRKFKFLKKKLKKK-NH2	hemolysis at 1 h, 640 ug/ml	9.34%

Data request, read-out hemolysis at 1 h, 640 ug/ml, for H-YFRTIRRFFKKLFKTLKK-NH2
10.3%

Next substance up: H-SYERKINRHFKTLKKNLKKK-NH2
7.06%

Lookup H-YIRKIRRFFKKLKKILKK-NH2
10.3%

What do you have for H-WVRKVRRWWKKVKKVVKK-NH2 ?
25.5%

# iterate: H-YEIKINRHFKTLKKNLKK-NH2
7.94%

###

Overview of recorded viability at 48 h, 640 ug/ml for various substances
- experiment-summary: Cytotoxicity against human HEK293T cells assessed as cell viability at 640 ug/ml incubated for 48 hrs by MTT assay relative to control
- Assay type: cell-based, HEK-293T
- measurement-conditions: read-out: Activity
Output spec: scalar in %, unitless text.

substance	viability at 48 h, 640 ug/ml [%]
H-VWKRWVVRKWKWVKKKVKKK-NH2	58.9

Moving on to the next substance.
# input substance: H-WVRKVRRWWKKVKKVVKK-NH2 ; wanted: its viability at 48 h, 640 ug/ml
65.7

###

- experiment-summary: Cytotoxicity against human HEK293T cells assessed as cell viability at 5 to 640 ug/ml incubated for 48 hrs by MTT assay relative to control
- Format: cell-based, HEK-293T
- measurement-conditions: read-out: Activity
recorded-endpoint: viability at 48 h

substance	data-value
H-YIRKIRRFFKKLNKNLKK-NH2	70 to 80%
H-SYERKINRHFKTLKKNLKKK-NH2	70 to 80%

Could you share which viability at 48 h value was measured for H-YEIKINRHFKTLKKNLKK-NH2 ?
70 to 80%

###

- System: Erythrocyte
- experiment-summary: Hemolytic activity in mouse Erythrocyte assessed as HC10 incubated for 1 hr
- Format: ADME, cell-based
recorded-endpoint: HC10 (µg/mL)
Numeric only. Scale: µg/mL

substance	result-units	HC10
H-VWKRWVVRKWKWVKKKVKKK-NH2	µg/mL	57.24
H-WYERLINRKFKWLKGRLSKK-NH2	µg/mL	178.82

What does the data say about its HC10? Entry: H-YFRTIRRFFKKLFKTLKK-NH2
640
